Test system: TSSK3;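 note: KINOMEscan kinase panel screen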
measurementParameters: concentration: 1 μM, replicates: in singlicate; n = 1
endpoint: %Inh (%)
Quick note: give the figure in %, leave out the unit.

Consider the following illustrative entries.
| compound | unitSymbol | %Inh |
| --- | --- | --- |
| OCCCNc1nccc(-c2c(-c3cccc(C(F)(F)F)c3)nn3cc(C(F)(F)F)ccc23)n1 [GW630813] | % | 6 |
| O=C1NC(=O)C(c2ccccc2)=C1Nc1cccc(O)c1 [SB-390534] | % | 0 |
| COc1cccc(C2=C(N(C)c3ccccc3)C(=O)NC2=O)c1 [SB-334865] | % | 7 |
| O=C(Nc1n[nH]c2nc(-c3ccccc3)c(Cl)cc12)C1CC1 [SB-734909] | % | 0 |

[in] Provide measured %Inh value, entry: COc1cc2ncn(-c3cc(OCc4ccc(S(C)(=O)=O)cc4)c(C(N)=O)s3)c2cc1OC [GW869979]
[out] 22

[in] Provide measured %Inh value, entry: Nc1n[nH]c2nnc(-c3ccccc3)c(-c3ccccc3)c12 [GW554060]
[out] 20

[in] Provide measured %Inh value, entry: Nc1nc(N)c2nc(-c3ccccc3)[nH]c2n1 [SKF-12778]
[out] 5

[in] Provide measured %Inh value, entry: O=C(Nc1ccc2c(c1)OCO2)NC1CCN(c2ccnc(NCc3ccc(F)cc3)n2)CC1 [GSK1379859]
[out] 12

[in] Provide measured %Inh value, entry: CCC(=O)c1c(-c2ccccc2)c2cc(Cl)ccc2c(=O)n1Cc1ccc(C(=O)O)cc1
[out] 0
